Data origin: the supplement of paper PMC4466140

target.under.test: ScRvs167
protocol: SPOT peptide array binding signal intensity (averaged, normalized) (arbitrary units (background-subtracted, floor 0; scale differs between SH3 domains)); higher = stronger binding of the SH3 domain to the peptide
// reported SPOT peptide array binding signal intensity per item
quantity.name: SPOT peptide array binding signal intensity

>  <binder>
MARRRLPDRPPNGIG

>  <observed.result>
2820

$$$$
>  <binder>
QDKEGIPPDQQRLIF

>  <observed.result>
1

$$$$
>  <binder>
PSPSSSPPPIPKTAN

>  <observed.result>
2

$$$$
>  <binder>
YRRKSIPFAPHQITA

>  <observed.result>
33.3

$$$$
>  <binder>
SAPDIPPRSPNRNAH

>  <observed.result>
1360

$$$$
>  <binder>
LEFRAILFIPKRAPF

>  <observed.result>
29.2

$$$$
>  <binder>
TEVPIPRRPPPPQAA

>  <observed.result>
1.83

$$$$
>  <binder>
RVRKTHVPASKRPSG

>  <observed.result>
2.17

$$$$
>  <binder>
KRRAPPPVPKKPSSR

>  <observed.result>
1260

$$$$
>  <binder>
NENKKLPPAPTVFGL

>  <observed.result>
0.167

$$$$
>  <binder>
TTAPALPSLPPPPLL

>  <observed.result>
≤ 0

$$$$
>  <binder>
LTRRFPFLFPFDTRM

>  <observed.result>
14.3

$$$$
>  <binder>
PIVPSSPAPPLPLSG

>  <observed.result>
≤ 0

$$$$
>  <binder>
QRIRKIPGIPLMSVG

>  <observed.result>
1160

$$$$
>  <binder>
AAHKTKPSIPPKKVE

>  <observed.result>
3.17

$$$$
